Each entry below carries its recorded INHIBITION.
Test system: Plasmodium falciparum
Test: Screen against P. falciparum Asexual Blood Stage (ABS), at 5uM
Assay type: functional, Dd2
Settings: tested at 5 uM
Hit rate of the full screen: of about 65,000 compounds, about 2,100 (3.2%) showed an effect of 50% or more. The median lay at about -52%. Shown is part of a subset that was picked to be rich in strong results.
The answer is to be given in %; state only the numeric part.

CC(C)COCC1CN(Cc2ccc3c(c2)OCO3)Cc2ncn(C)c21 (stereo unspecified) : 38.7

Ask: // returns reported INHIBITION for input `CN1CC[C@H]2[C@H](C[C@@H](Cn3cncn3)N2c2nccs2)C1`
Reply: -37.1

Ask: Fill in the blank: the reported INHIBITION of `COCC(=O)N1CCC2(CC1)CN(c1ccsc1)C(=O)CO2` is ____.
Reply: -11.6

Ask: What value of INHIBITION has been recorded for this entry: Cc1cc(C2NC(=O)CN2Cc2ccc(Br)cc2)cc(C)c1O (stereo unspecified)
Reply: -78.2

Ask: # get_value(readout='INHIBITION', item= CCN1CCC(NC(=O)NCC(O)c2ccc(Cl)c(F)c2)CC1 (stereo unspecified) )
Reply: -34.9

Ask: Which INHIBITION is listed for CC(C)NC(=O)C1(Cc2ccccc2-c2cccs2)CCNC1 (stereo unspecified) ?
Reply: 68.3

Ask: Record request: INHIBITION value, item `CCCC(=O)N1CCCN(C(=O)c2oc(C)nc2C)CC1`
Reply: -111
